experiment: DUSP6 inhibitors restoring Erk phosphorylation by chemical complementation, primary imaging in DUSP6-transfected HeLa (AID 609); conditions: HeLa MKP-3 transfected, phospho-Erk imaging KS statistic; measured here: cell density z-score; at 10 µM; cells stimulated with TPA for 15 min
// not fulfilled strictly below 0.1 in z-score; fulfilled otherwise

COc1ccc(-n2ncc3c(Nc4cccc(C)c4)ncnc32)cc1; fulfilled
COc1cccc(C(=O)c2sc(NC(C)C)nc2N)c1; not fulfilled
CCOC(=O)NC(Nc1cc(C)on1)(C(F)(F)F)C(F)(F)F; not fulfilled
Cc1ccc(N2C(=O)CC3(CC4C=CC3C4)C2=O)cc1 (stereo not drawn); fulfilled
CCCCC(CCC(=O)Nc1ccc(C(=O)OCC)cc1)C(=O)O (stereo not drawn); not fulfilled
CCOCCn1c(SC)nc2c1c(=O)[nH]c(=O)n2C; fulfilled
CCSc1nnc(NC(=O)C(C)(C(F)(F)F)C(F)(F)F)s1; not fulfilled
CC1(C)Cc2c(c(N3CCOCC3)nc3sc4c(NCc5ccco5)nnnc4c23)CS1; fulfilled
COc1ccccc1NC(=O)Nc1nnc(C(C)C)s1; not fulfilled
COc1ccc(/C(O)=C2\C(=O)C(=O)N(Cc3ccco3)C2c2cc(OC)ccc2OC)cc1 (stereo not drawn); fulfilled
COC(=O)[C@H]1CCCN1C(=O)Nc1cccc(Oc2c(F)c(F)c(F)c(F)c2F)c1; fulfilled
Cc1ccc(C(=O)C2C(c3cccs3)NC(=O)NC2(O)C(F)(F)F)cc1 (stereo not drawn); not fulfilled
N#CC1=C(N)OC2=C(C(=O)CCC2)[C@]12C(=O)N(CC(N)=O)c1ccccc12; not fulfilled
CCOc1ccc(N2C(=O)CC(N)C2=O)cc1 (stereo not drawn); not fulfilled
CN(C)CCCNCCCCNC(=O)/C=N/O; not fulfilled
CCn1c(SCC(=O)N2CCOCC2)nc2sc3c(c2c1=O)CCCC3; not fulfilled
CCCCCOC(=O)Cc1c(C)nc(-c2ccccc2)[nH]c1=O; fulfilled
CC1(C(=O)CSc2nc3ccccc3[nH]2)CCC(=O)O1 (stereo not drawn); not fulfilled
CCCCCSc1nc(N2CCOCC2)c2c(c1C#N)CC(C)(C)OC2; not fulfilled
CC(Sc1ccc2ccccc2n1)C(=O)O (stereo not drawn); fulfilled
COc1cccc(Cn2c(NCc3ccccn3)nc3c2c(=O)n(C)c(=O)n3C)c1; fulfilled
CSc1cc(C)nc(N(C)C(C)=O)n1; not fulfilled
CCOC(=O)NC(Nc1sc2c(c1C(=O)OC)CCN(C)C2)(C(F)(F)F)C(F)(F)F; fulfilled

* * *

assay: inhibitors of TNFa-induced NFkB p65 translocation, primary screen, imaging, HUVEC, MLSMR starter and 10KST1 sets (AID 438); settings: HUVEC TNFa-induced p65 nuclear translocation; at 2 µM, stronger effect = higher value, 0% TNFa-plus-vehicle, 100% no-TNFa wells;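 further: compound added about 3h40 before a 20 min TNFalpha stimulation; signal is the nuclear over cytoplasmic p65 intensity ratio per well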
REPORTED_METRIC: inhibition (%)

COCCCNC(=O)c1c(N)n(/N=C/c2cccnc2)c2nc3ccccc3nc12; 4.4
COc1ccccc1NC(=O)CSc1nnc(-c2ccc(NC(C)=O)cc2)n1C; -6
COC(=O)CC(=O)Cc1nc(N)nc(Nc2ccc(C)c(C)c2)n1; 1.8
CCCCCCC(C)n1[nH]c(=O)c2c(C)cc(=O)[nH]c21 (stereo not drawn); 8.2
COc1cc(Cl)c(C)cc1NC(=O)COC(=O)c1cnc(C)cn1; 3.8
COC(=O)c1c(NC(=O)CSc2nnc(-c3cccnc3)n2Cc2ccco2)sc(C)c1C; -5.5
O=C(Nc1ccc(N2C(=O)C3C4C=CC(C4)C3C2=O)cc1)Nc1nncs1 (stereo not drawn); -9.8
CC(C)c1ncc(C(O)c2cccc3ccccc23)n1C (stereo not drawn); -10.5
CCOC(=O)CNC(=O)CNC(=O)c1ccc(OCC(C)C)cc1; 2.1
CCOC(=O)C(C)Oc1ccc2c(C)cc(=O)oc2c1C(C)=O (stereo not drawn); 3.9
CCOc1ccc(/C(O)=C2/C(=O)C(=O)N(c3cc(C)on3)C2c2ccc(C(=O)OC)cc2)cc1 (stereo not drawn); -0.4
CCNC(=O)COn1c(SCC(=O)NCC)nc2ccccc2c1=O; 2.9
COc1ccc(C2C(C(C)=O)=C(O)C(=O)N2c2nccs2)cc1OC (stereo not drawn); -8.9
Fc1ccc2[nH]c3c(N4CCSCC4)ncnc3c2c1; -4.3
CC1CN(c2nc(-c3ccccc3)nc3ccccc23)CC(C)O1 (stereo not drawn); -6
COC(=O)C1(C)NC(c2cccs2)C2C(=O)N(c3ccccc3F)C(=O)C21 (stereo not drawn); 2.8
Cc1[nH]nc2c1C(c1ccc(F)cc1)C1=C(CC(C)(C)CC1=O)N2 (stereo not drawn); -30.6
CCn1cc(C2=NCC(C)O2)c2ccccc21 (stereo not drawn); 5
CC1CCN(c2[nH]c(=S)c(C#N)c3c2CCCC3)CC1; -5.9
CN1CCCC(OC(=O)c2ccc3c(c2)OCCO3)C1 (stereo not drawn); -1.4
CC1(C)Cc2c(sc3ncn4nc(-c5ccco5)nc4c23)CO1; 6.6
CCOC(=O)C(C)Sc1nc(-c2cccs2)ccc1C#N (stereo not drawn); 0.6
COc1cc(/C=N/n2nnnc2N)ccc1O; -13

* * *

assay: inhibitors of Sendai virus-induced IRF3 signaling, primary screen, TLR/RLR signaling modifier project, cell-based, Sendai virus stimulus, luciferase, 10K MLSCN set (AID 602276); details: HEK293 RL24 IRF3 luciferase reporter, at 10 µM, stronger effect = higher value;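 further: firefly luciferase from ISG56 promoter only with Renilla not read in this screen; 0% = Sendai virus plus DMSO and 100% = medium plus DMSO without virus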
# maps each entry to its inhibition
REPORTED_METRIC: inhibition (%)

COc1cc(NC(=O)CN(c2cc(C)cc(C)c2)S(=O)(=O)c2c(C)noc2C)cc(OC)c1; 18.7
O=C(c1ccncc1)N1CCN(C(=O)c2cccs2)CC1; 12.1
CCOC(=O)N1CCN(C(=O)c2ccc(CS(=O)(=O)c3c(Cl)cccc3Cl)o2)CC1; -2.6
O=C(CCN1C(=O)COc2ccccc21)N1CCN(c2ccccn2)CC1; 10.4
O=C(Nc1ccc2c(c1)nc1n2CCN(Cc2ccccc2)C1)c1cccs1; -17.8
CCCCOn1c(C)c(C(=O)OCC)c2c3nonc3ccc21; -10.2
O=C(NCCCNC(=O)c1ccccn1)c1ccccn1; 15.1
O=C(Nc1ccc(N2CCOCC2)c(Cl)c1)c1ccc(Br)o1; -54.1
O=C(NCc1ccccn1)c1cc(-n2cnnc2)ccc1Cl; 2.94
CCC(Oc1ccccc1)C(=O)Nc1ccccc1OC (stereo not drawn); 0.598
CCCNS(=O)(=O)c1ccc(C(=O)NCC2CCCO2)cc1 (stereo not drawn); 10.8
CCc1noc(C)c1C(=O)NCCc1ccc(OC)c(OC)c1; 14.3
CC(=O)N1CCN=C1SCc1ccc(Br)cc1; -0.301
COc1ccc(N2CCN(CCCNS(=O)(=O)c3c(C)noc3/C=C/N(C)C)CC2)cc1; 3.23
CC(C(=O)Nc1ccccc1-c1ccccc1)N1CCOCC1 (stereo not drawn); 3.12
Fc1ccc(-n2c(Cc3ccccc3)nnc2SCc2nc(-c3cccs3)no2)cc1; -1.69
CCOc1ccc(NC(=O)c2ccc3c(c2)N(Cc2ccc(F)cc2)C(=O)CS3=O)cc1 (stereo not drawn); 5.6
CC(C)CCn1c(NCCc2ccccc2)nc2c1c(=O)n(C)c(=O)n2C; 9.59
C=CCn1c(COc2ccc(Cl)cc2)nnc1SCC(=O)N1CC(=O)Nc2ccccc21; 3.41
Cc1ccc(-n2ncc(C(=O)N3CCc4ccccc4C3)c2NC(=O)c2ccco2)cc1C; 2.03
Cc1cccc(-n2c(=O)cc(N3CCN(c4ccc(F)cc4)CC3)[nH]c2=O)c1; -5.09
c1ccc(-c2ccccc2OCCn2cncn2)cc1; 2.95
COc1ccc(C2=NOC(C(=O)NC3CCCCC3)C2)cc1OC (stereo not drawn); 14.9

* * *

assay: inhibitors of poly I:C-induced TLR3 signaling, primary screen, cell-based, poly I:C stimulus, luciferase, 10K MLSCN set (AID 602277); conditions: HEK293-TLR3 RL24 IRF3 luciferase reporter, at 10 µM, stronger effect = higher value
REPORTED_METRIC: inhibition (%)

O=C(Nc1cccc(O)c1)c1ccccc1; -29.4
c1coc(-c2nnc(NC3=NCCC3)o2)c1; -42.4
Cc1cccc(-n2ncc3c(NCc4cccnc4)ncnc32)c1; -205
CCN(CC)C(=O)C1CCCN(Cc2ccc(N(C)C)cc2)C1 (configuration not stated); 26.8
Cc1onc(-c2ccccc2Cl)c1C(=O)NCCn1c(C)cc2ccccc21; 36.3
COc1ccc(NC(=O)CN2CCN(S(=O)(=O)c3ccc(Cl)cc3)CC2)cc1; 17.3
COC(=O)N1CC(c2ccccc2)CC1=O (configuration not stated); 16.7
Cc1occc1C(=O)Nc1nnc(C2CCCCC2)s1; -13.3
Cc1ccccc1NC(=O)Cc1nnc(SCC(=O)N2CCN(c3ccccc3)CC2)n1C; 29.5
CC1CCN(C(=O)CN2C(=O)C(C)(C)Oc3ccc(C(=O)NC4CCCC4)cc32)CC1; 14.6
Cc1ccnc(SCCn2c(N3CCN(Cc4ccccc4)CC3)nc3c2c(=O)[nH]c(=O)n3C)n1; 0.626
COc1ccc(C)cc1S(=O)(=O)Nc1cccnc1; 25.5
